Test system: Mycolicibacterium smegmatis
Test: Antimycobacterial activity against Mycobacterium smegmatis MC2 ATCC 19420 using compound level ranging from 0.3125 to 5 ug/mL after 7 days by resazurin reduction test
Format: functional
Conditions: MC2 ATCC 19420, 168 h
Measured MIC values are reported for all entries that follow.
READOUT: MIC (µg/mL)

> print(dat)
                                smiles.text  readout  measurement.units  number
1  O=C(N/N=C/c1ccc(OC(F)(F)C(F)F)cc1)c1cnc2c(C(F)(F)F)cccc2c1O      MIC              µg/mL      10
2  COc1ccc2[nH]cc(/C=N/NC(=O)c3cnc4c(C(F)(F)F)cccc4c3O)c2c1      MIC              µg/mL      10
3  COc1ccc(/C=N/NC(=O)c2cnc3c(C(F)(F)F)cccc3c2O)c(F)c1      MIC              µg/mL      10
4  Cc1cccc2c(/C=N/NC(=O)c3cnc4c(C(F)(F)F)cccc4c3O)c[nH]c12      MIC              µg/mL    1.25
5                           NNC(=O)c1ccncc1      MIC              µg/mL      50
6  O=C(N/N=C/c1cc(F)ccc1O)c1cnc2c(C(F)(F)F)cccc2c1O      MIC              µg/mL      10
